Target: B2 bradykinin receptor (Cavia porcellus)
Sequence (O70526 whole entry): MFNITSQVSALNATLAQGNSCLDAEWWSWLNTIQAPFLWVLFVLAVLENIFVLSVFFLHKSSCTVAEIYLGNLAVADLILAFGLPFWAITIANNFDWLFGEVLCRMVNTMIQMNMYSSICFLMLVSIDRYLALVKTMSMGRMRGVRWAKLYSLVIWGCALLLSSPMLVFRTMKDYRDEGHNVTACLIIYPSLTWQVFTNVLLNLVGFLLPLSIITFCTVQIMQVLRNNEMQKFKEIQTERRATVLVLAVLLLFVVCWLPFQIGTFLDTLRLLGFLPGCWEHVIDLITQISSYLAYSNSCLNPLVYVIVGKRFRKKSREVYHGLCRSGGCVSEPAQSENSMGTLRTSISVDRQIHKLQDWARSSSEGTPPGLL
Assay: Inhibition of specific binding of [3H]BK at 0.06 nM to bradykinin receptor B2 in guinea pig ileum membrane preparations by 50%.
pIC50: −log10 of the molar value.
measured property: pIC50

smiles_structure=CC(=O)Nc1ccc(/C=C/C(=O)NCC(=O)N(C)c2ccc(Cl)c(COc3cccc4c(N(C)C)cc(C)nc34)c2Cl)cc1C.Cl.Cl.Cl.Cl endpoint_result=7.68

a = Cc1cc(N(C)C)c2cccc(OCc3c(Cl)ccc(N(C)C(=O)CNC(=O)/C=C/c4ccc(C(=O)NCc5ccccn5)cc4)c3Cl)c2n1.Cl
b = Cc1cc(N2CCCCC2)c2cccc(OCc3c(Cl)ccc(N(C)C(=O)CNC(=O)/C=C/c4ccc(NC(=O)c5ccncc5)cc4)c3Cl)c2n1.Cl
Hi, I'm comparing a with b and wondering which one has the bigger number for pIC50. Any idea? Label of pick, please.
a
(a: 7.55, b: 7.12)

----------
Target: B2 bradykinin receptor (Cavia porcellus, UniProt O70526)
Sequence (O70526 whole entry): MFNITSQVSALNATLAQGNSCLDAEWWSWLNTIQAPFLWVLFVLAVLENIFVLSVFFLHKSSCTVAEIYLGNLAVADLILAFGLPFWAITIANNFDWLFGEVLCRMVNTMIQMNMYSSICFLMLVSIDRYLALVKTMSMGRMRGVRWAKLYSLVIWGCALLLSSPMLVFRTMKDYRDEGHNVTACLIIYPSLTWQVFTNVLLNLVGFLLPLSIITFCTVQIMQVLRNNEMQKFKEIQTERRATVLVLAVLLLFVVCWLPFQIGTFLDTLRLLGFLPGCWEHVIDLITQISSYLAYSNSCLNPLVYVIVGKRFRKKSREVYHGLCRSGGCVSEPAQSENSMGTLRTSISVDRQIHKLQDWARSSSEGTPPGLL
Assay: Inhibition of specific binding of [3H]BK at 0.06 nM to bradykinin receptor B2 in guinea pig ileum membrane preparations by 50%.
pIC50: −log10 of the molar value.
measured property: pIC50

// solved cases for pIC50 follow
smiles_structure=Cc1cc(N2CCOCC2)c2cccc(OCc3c(Cl)ccc(N(C)C(=O)CNC(=O)/C=C/c4ccc(N5CCCC5=O)cc4)c3Cl)c2n1.Cl.Cl.Cl.Cl endpoint_result=7.89
smiles_structure=Cc1cc(N2CCCCC2)c2cccc(OCc3c(Cl)ccc(N(C)C(=O)CNC(=O)/C=C/c4ccc(C(=O)N(C)C)cc4)c3Cl)c2n1.Cl.Cl.Cl.Cl endpoint_result=7.52

P = Cc1cc(N(C)C)c2cccc(OCc3c(Cl)ccc(N(C)C(=O)CNC(=O)Nc4cccc(C(=O)Nc5ccncc5)c4)c3Cl)c2n1.Cl
Q = CC(=O)Nc1ccc(/C=C/C(=O)NCC(=O)N(C)c2ccc(Cl)c(COc3cccc4c(N5CCOCC5)cc(C)nc34)c2Cl)cn1
R = CNC(=O)c1ccc(/C=C/C(=O)NCC(=O)N(C)c2ccc(Cl)c(COc3cccc4c(N5CCCCCC5)cc(C)nc34)c2Cl)cc1
S = CNC(=O)c1ccc(/C=C/C(=O)NCC(=O)N(C)c2ccc(Cl)c(COc3cccc4c(NCCN(C)C)cc(C)nc34)c2Cl)cc1
T = Cc1cc(N(C)C)c2cccc(OCc3c(Cl)ccc(N(C)C(=O)CNC(=O)/C=C/c4ccc(C(=O)Nc5ccncc5)cc4)c3Cl)c2n1.Cl
Please give the order of these compounds when sorted by pIC50, largest value leading. Provide the ranking by listing each label in its place in the requested order.
T, P, Q, R, S
(T: 8.29, P: 7.92, Q: 7.19, R: 6.08, S: 5.64)
